# assay_name: cells
# condition_description: Mus musculus, C57/BL6
# Description: In vivo agonist activity at RORgamma in C57/BL6 mouse assessed as plasma concentration required to increase RORgamma targeted gene expression in isolated thymocytes
value_type: pEC50
Lab note — pEC50 values are minus log10 of concentrations in M.

The recorded pEC50 for CC(C)(C[C@H]1CN(S(=O)(=O)c2cccc(C(F)(F)F)c2)c2cc(-c3cc(F)cc(OC(F)F)c3)ccc2O1)C(=O)O is 6.47

* * *

# Nuclear receptor ROR-gamma (Homo sapiens, UniProt P51449): EC50 values follow
# Sequence (P51449 whole entry): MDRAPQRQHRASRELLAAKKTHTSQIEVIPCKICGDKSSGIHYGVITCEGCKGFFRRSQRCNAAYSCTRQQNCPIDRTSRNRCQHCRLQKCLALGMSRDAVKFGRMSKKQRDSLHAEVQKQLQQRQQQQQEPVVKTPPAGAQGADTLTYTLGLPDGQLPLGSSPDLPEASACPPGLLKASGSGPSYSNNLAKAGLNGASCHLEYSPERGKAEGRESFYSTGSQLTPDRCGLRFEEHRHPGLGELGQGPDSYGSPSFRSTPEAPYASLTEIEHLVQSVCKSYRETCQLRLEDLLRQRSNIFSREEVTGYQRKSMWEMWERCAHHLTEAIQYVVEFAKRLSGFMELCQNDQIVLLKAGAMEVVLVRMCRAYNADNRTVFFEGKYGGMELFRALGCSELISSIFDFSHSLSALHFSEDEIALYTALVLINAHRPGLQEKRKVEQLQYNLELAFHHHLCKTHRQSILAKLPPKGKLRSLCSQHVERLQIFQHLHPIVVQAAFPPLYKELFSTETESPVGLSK
Write your answer as a measured quantity: the number, then the unit.

Use the examples below as a reference point.
>>> result("O=C(O)[C@H](O)CC[C@H]1CN(S(=O)(=O)c2cccc(C(F)(F)F)c2)c2cc(-c3cc(F)ccc3F)ccc2O1")
"166 nM"
>>> result("O=C(O)C1(C[C@H]2CN(S(=O)(=O)c3cccc(C(F)(F)F)c3)c3cc(-c4cc(F)ccc4F)ccc3O2)COC1")
"179 nM"
>>> result("CC(C)(C[C@H]1CN(S(=O)(=O)c2cccc(C(F)(F)F)c2)c2cc(-c3cc(F)ccc3F)ccc2O1)C(=O)O")
"344 nM"
>>> result("C/C(=C\\c1ccc2c(c1)N(S(=O)(=O)c1cccc(C(F)(F)F)c1)C[C@H](CCC(=O)O)O2)c1c(Cl)cccc1Cl")
"487 nM"
>>> result("C/C(=C\\c1ccc2c(c1)N(S(=O)(=O)c1ccc(F)c(C3CC3)c1)C[C@H](CCC(=O)O)O2)c1c(F)cccc1Cl")
"495 nM"
>>> result("O=C(O)CC[C@H]1CN(S(=O)(=O)c2cccc(C(F)(F)F)c2)c2cc(-c3cc(F)ccc3F)ccc2O1")
"181 nM"

Then there is this compound:
Reported EC50 for O=C(O)CC[C@H]1CN(S(=O)(=O)c2cccc(C(F)(F)F)c2)c2cc(-c3cccc(OC(F)F)c3)ccc2O1 was 278 nM

Attribution: ChEMBL document CHEMBL4837250
